Hey, just so you know, these numbers are from ChEMBL document CHEMBL1152321.

system: PANC-1; experiment: Cytotoxicity against human PANC1 cells expressing mdr1, mrp1, mrp2, lrp genes after 72 hrs; assay type: functional, cell-based; settings: PANC-1, 72 h
quantity-kind: log10 IC50 (log10 of the value in nM)

1) CC(=O)O[C@H]1C(=O)[C@@]2(C)[C@H]([C@H](OC(=O)c3ccccc3)[C@]3(O)C[C@H](OC(=O)[C@H](O)[C@H](C=C(F)F)NC(=O)OC(C)(C)C)C(C)=C1C3(C)C)[C@]1(OC(C)=O)CO[C@@H]1C[C@@H]2O	0.08
2) CC(=O)O[C@H]1C(=O)[C@@]2(C)[C@H]([C@H](OC(=O)c3ccccc3)[C@]3(O)C[C@H](OC(=O)[C@H](O)[C@@H](NC(=O)c4ccccc4)c4ccccc4)C(C)=C1C3(C)C)[C@]1(OC(C)=O)CO[C@@H]1C[C@@H]2O	1.41
3) CC(=O)O[C@@]12CO[C@@H]1C[C@H](O)[C@@]1(C)C(=O)[C@H](OC(=O)C3CC3)C3=C(C)[C@@H](OC(=O)[C@H](O)[C@H](C=C(F)F)NC(=O)OC(C)(C)C)C[C@@](O)([C@@H](OC(=O)c4ccccc4)[C@H]21)C3(C)C	0.77
4) CC(=O)O[C@@]12CO[C@@H]1C[C@H](O)[C@@]1(C)C(=O)[C@H](OC(=O)N(C)C)C3=C(C)[C@@H](OC(=O)[C@H](O)[C@H](C=C(F)F)NC(=O)OC(C)(C)C)C[C@@](O)([C@@H](OC(=O)c4ccccc4)[C@H]21)C3(C)C	0.20
5) CCC(=O)O[C@H]1C(=O)[C@@]2(C)[C@H]([C@H](OC(=O)c3ccccc3)[C@]3(O)C[C@H](OC(=O)[C@H](O)[C@H](C=C(F)F)NC(=O)OC(C)(C)C)C(C)=C1C3(C)C)[C@]1(OC(C)=O)CO[C@@H]1C[C@@H]2O	-0.19
